Item-by-item account of IC50
- Assay System: Tyrosine-protein kinase receptor UFO (Homo sapiens, UniProt P30530)
- Sequence (P30530 whole entry): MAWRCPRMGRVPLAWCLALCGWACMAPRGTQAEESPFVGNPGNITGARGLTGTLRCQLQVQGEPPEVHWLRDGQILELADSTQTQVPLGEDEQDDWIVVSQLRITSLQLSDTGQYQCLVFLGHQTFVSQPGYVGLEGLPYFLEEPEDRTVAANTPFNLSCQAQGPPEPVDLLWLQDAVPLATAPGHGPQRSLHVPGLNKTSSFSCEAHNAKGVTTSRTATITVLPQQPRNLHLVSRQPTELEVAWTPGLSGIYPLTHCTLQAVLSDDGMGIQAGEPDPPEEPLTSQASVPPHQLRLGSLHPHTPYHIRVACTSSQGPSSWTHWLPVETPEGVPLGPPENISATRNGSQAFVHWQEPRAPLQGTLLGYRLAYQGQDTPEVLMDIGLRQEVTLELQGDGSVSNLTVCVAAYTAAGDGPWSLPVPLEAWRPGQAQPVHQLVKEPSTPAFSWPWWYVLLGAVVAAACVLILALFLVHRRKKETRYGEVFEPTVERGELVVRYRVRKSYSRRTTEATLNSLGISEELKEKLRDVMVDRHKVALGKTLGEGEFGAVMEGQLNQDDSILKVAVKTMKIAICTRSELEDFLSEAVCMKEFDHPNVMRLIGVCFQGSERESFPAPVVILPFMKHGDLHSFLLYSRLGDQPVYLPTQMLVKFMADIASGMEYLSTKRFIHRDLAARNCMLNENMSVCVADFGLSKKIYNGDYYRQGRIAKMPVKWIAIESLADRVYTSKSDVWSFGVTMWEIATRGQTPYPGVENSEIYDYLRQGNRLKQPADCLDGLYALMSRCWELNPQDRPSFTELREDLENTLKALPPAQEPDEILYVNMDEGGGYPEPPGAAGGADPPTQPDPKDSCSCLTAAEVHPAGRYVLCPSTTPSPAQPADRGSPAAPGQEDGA
Measured Attribute: IC50 (nM)

Chemical String	Censoring Operator	Result Number
CNc1ncc2c(-c3ccc(N4CCN(C)CC4)nc3)nn(Cc3cn(Cc4ccccc4)nn3)c2n1	=	380
CCN1CCN(c2ccc(-c3nn(Cc4cn(Cc5ccccc5)nn4)c4nc(NC)ncc34)cn2)CC1	>	10000
CNc1ncc2c(-c3ccc(N4CCN(C(=O)C(C)(C)C)CC4)nc3)nn(CC3CCCC3)c2n1	=	7200
CNc1ncc2c(-c3ccc(N4CCN(C(=O)C(C)(C)C)CC4)nc3)nn(Cc3cn(Cc4ccccc4)nn3)c2n1	=	760
CNc1ncc2c(-c3ccc(N4CCN(C)CC4)nc3)nn(CC3CCCC3)c2n1	=	70
CNc1ncc2c(-c3ccc(N4CCNCC4)nc3)nn(CC3CCCC3)c2n1	=	120

====

pIC50: −log10 of the molar value.
Observed pIC50 values for UniProtKB P12931 are listed in what follows.
Sequence (P12931 2-536 limits assumed): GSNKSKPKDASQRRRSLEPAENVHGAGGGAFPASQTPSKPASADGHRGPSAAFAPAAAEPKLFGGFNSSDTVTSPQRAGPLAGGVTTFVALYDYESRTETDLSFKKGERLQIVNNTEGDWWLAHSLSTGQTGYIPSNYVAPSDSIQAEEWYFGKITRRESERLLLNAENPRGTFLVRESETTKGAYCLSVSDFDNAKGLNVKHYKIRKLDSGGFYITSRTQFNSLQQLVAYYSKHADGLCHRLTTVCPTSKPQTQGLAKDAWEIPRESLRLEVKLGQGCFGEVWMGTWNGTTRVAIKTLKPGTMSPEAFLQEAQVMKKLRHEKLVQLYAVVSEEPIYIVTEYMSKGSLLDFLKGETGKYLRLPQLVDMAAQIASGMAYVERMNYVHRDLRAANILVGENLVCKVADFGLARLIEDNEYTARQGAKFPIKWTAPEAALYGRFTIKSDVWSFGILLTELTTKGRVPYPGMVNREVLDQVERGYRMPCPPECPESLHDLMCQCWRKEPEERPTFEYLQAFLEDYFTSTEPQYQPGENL
Measured Attribute: pIC50

Chemical String	Measured Attribute	Censoring Operator	Result Number
CNc1ncc2c(-c3ccc(N4CCN(C)CC4)nc3)nn(CC3CCCC3)c2n1	pIC50	=	6.10
CNc1ncc2c(-c3ccc(N4CCNCC4)nc3)nn(CC3CCCC3)c2n1	pIC50	=	5.96
CCN1CCN(c2ccc(-c3nn(Cc4cn(Cc5ccccc5)nn4)c4nc(NC)ncc34)cn2)CC1	pIC50	<	5.00

====

- Assay System: Vascular endothelial growth factor receptor 2 (Homo sapiens)
- Sequence (P35968 whole entry): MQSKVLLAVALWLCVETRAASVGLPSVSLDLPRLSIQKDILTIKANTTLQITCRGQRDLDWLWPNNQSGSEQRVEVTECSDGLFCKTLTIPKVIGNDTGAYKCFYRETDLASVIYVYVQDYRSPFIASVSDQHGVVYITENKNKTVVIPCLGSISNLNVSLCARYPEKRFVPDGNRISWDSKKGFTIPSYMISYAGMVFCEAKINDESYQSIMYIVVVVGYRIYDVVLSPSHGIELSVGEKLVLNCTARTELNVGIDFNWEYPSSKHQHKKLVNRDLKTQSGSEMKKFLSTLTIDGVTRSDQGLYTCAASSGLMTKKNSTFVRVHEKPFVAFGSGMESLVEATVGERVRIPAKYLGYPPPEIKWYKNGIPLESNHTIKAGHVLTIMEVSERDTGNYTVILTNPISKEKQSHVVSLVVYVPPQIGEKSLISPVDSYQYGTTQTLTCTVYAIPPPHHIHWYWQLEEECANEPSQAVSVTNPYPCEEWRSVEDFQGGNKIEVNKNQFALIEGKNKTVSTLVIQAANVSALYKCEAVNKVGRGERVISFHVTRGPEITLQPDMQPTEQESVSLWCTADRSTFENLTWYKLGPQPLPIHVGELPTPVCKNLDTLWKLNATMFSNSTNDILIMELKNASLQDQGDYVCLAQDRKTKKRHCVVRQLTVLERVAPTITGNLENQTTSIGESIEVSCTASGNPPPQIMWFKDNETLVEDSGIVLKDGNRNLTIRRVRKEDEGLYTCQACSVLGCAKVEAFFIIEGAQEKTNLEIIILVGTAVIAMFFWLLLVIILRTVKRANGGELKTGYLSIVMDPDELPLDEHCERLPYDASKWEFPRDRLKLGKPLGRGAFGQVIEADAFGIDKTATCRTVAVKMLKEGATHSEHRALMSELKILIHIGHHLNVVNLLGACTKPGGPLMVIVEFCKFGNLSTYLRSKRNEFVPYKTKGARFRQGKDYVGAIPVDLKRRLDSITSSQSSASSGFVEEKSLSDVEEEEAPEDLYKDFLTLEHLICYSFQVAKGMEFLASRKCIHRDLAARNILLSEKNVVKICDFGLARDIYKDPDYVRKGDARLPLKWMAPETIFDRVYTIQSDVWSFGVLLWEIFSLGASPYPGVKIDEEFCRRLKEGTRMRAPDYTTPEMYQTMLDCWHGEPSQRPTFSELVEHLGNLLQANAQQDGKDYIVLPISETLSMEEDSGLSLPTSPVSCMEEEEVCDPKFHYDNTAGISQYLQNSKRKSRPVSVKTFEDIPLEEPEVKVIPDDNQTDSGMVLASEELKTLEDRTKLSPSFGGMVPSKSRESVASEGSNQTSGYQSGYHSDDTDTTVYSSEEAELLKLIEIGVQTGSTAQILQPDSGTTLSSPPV

Chemical String	Assay System	Censoring Operator	IC50 (nM)
CNc1ncc2c(-c3ccc(N4CCN(C(=O)C(C)(C)C)CC4)nc3)nn(Cc3cn(Cc4ccccc4)nn3)c2n1	Vascular endothelial growth factor receptor 2 (Homo sapiens)	>	10000
CNc1ncc2c(-c3ccc(N4CCN(C)CC4)nc3)nn(CC3CCCC3)c2n1	Vascular endothelial growth factor receptor 2 (Homo sapiens)	=	400
CNc1ncc2c(-c3ccc(N4CCNCC4)nc3)nn(Cc3cn(-c4ccsc4C(=O)OC)nn3)c2n1	Vascular endothelial growth factor receptor 2 (Homo sapiens)	>	10000
CCN1CCN(c2ccc(-c3nn(CC4CCCC4)c4nc(NC)ncc34)cn2)CC1	Vascular endothelial growth factor receptor 2 (Homo sapiens)	=	1900

====

Here's a batch of compounds along with measured IC50 for UniProt P08581.
Sequence (P08581 whole entry): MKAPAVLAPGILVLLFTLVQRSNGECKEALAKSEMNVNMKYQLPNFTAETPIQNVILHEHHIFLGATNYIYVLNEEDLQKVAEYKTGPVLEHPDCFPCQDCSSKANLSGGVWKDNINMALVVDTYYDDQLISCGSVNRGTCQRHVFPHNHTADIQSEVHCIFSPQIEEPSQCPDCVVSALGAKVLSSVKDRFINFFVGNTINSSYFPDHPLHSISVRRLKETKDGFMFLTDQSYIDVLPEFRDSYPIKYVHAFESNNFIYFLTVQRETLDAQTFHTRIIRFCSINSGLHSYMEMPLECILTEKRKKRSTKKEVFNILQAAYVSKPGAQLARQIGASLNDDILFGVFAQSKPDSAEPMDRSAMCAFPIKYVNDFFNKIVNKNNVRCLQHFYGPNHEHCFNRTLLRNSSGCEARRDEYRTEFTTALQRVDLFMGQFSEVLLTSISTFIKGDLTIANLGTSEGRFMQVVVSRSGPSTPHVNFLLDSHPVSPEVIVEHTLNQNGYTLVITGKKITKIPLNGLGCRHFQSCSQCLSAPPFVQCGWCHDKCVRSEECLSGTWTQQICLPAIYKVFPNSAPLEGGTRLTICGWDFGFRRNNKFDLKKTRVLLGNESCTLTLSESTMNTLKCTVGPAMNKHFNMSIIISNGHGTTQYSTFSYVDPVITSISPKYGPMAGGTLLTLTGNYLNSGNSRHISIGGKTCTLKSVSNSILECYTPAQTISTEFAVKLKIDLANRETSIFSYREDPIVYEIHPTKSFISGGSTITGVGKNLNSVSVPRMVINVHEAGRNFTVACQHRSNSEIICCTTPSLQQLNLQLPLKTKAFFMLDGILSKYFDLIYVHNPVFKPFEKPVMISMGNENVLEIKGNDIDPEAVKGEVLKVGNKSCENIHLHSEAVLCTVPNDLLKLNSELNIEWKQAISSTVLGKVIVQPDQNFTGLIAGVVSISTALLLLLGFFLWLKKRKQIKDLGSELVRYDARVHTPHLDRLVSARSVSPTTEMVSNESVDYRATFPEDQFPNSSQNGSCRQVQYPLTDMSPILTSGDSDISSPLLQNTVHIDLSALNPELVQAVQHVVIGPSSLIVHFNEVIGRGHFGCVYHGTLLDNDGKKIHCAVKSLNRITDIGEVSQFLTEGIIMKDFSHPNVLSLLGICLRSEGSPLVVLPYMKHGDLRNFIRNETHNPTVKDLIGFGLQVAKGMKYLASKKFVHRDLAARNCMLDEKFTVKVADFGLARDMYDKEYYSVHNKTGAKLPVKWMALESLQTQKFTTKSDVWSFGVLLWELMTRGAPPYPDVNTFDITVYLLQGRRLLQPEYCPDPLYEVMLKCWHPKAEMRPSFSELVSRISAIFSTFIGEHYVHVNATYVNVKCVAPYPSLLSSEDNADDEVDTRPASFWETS

Chemical String	Assay System	IC50
CNc1ncc2c(-c3ccc(N4CCN(C(=O)C(C)(C)C)CC4)nc3)nn(CC3CCCC3)c2n1	UniProt P08581	> 10 µM
CNc1ncc2c(-c3ccc(N4CCNCC4)nc3)nn(CC3OCCO3)c2n1	UniProt P08581	> 10 µM
CNc1ncc2c(-c3ccc(N4CCNCC4)cc3)nn(Cc3cn(Cc4ccccc4)nn3)c2n1	UniProt P08581	> 10 µM

====

IC50, Tyrosine-protein kinase receptor TYRO3 (Homo sapiens, UniProt Q06418): measured values
Measured Attribute: IC50

Chemical String	Assay System	Measured Attribute	Result
CNc1ncc2c(-c3ccc(N4CCN(C)CC4)nc3)nn(CC3CCCC3)c2n1	Tyrosine-protein kinase receptor TYRO3 (Homo sapiens, UniProt Q06418)	IC50	3.67 µM
CNc1ncc2c(-c3ccc(N4CCN(C(=O)C(C)(C)C)CC4)nc3)nn(Cc3cn(Cc4ccccc4)nn3)c2n1	Tyrosine-protein kinase receptor TYRO3 (Homo sapiens, UniProt Q06418)	IC50	> 10 µM
CNc1ncc2c(-c3ccc(N4CCNCC4)cc3)nn(Cc3cn(Cc4ccccc4)nn3)c2n1	Tyrosine-protein kinase receptor TYRO3 (Homo sapiens, UniProt Q06418)	IC50	> 10 µM
